# TGT: H. pylori MTAN (Helicobacter pylori)
# Construct: His6 (N); made in house; host or cells: E. coli BL21 (DE3)
# TEST_DESCRIPTION: Ki determination: inhibition of recombinant HpMTAN, xanthine oxidase coupled assay, 5′-methylthioadenosine as substrate
# Type: biochemical
# PARTICULARS: Table 3, DADMe-Immucillin-A series; initial inhibition constant; read-out: Inhibition of H. pylori MTAN Ki
# Experimental: The purification procedure of HpMTAN was described previously^10. Briefly, BL21 (DE3) cells harboring a plasmid encoding HpMTAN with an N-terminal His6-tag were grown to an optical density of 0.7 measured at 595 nm and IPTG was introduced to a final concentration of 0.5 mM. […] Kinetics of HpMTAN were determined using a direct assay involving absorbance decrease at 274 nm continuously as a consequence of formation of free adenine from 5′-methylthioadenosine. […]
pKi: −log10 of the molar value.

COMPOUND	pKi
CCSC[C@H]1CN(Cc2c[nH]c3c(N)ncnc23)C[C@@H]1O	9.92
Nc1ncnc2c(CN3C[C@H](CSC4CCCC4)[C@@H](O)C3)c[nH]c12	9.11
Nc1ncnc2c(CN3CC(O)[C@@H](CSCCO)C3)c[nH]c12 (stereo partly drawn)	9.37

====

# TGT: H. pylori MTAN (Helicobacter pylori)
# Construct: His6 (N); made in house; host or cells: E. coli BL21 (DE3)
# TEST_DESCRIPTION: Ki determination: inhibition of recombinant HpMTAN, xanthine oxidase coupled assay, 5′-methylthioadenosine as substrate
# Assay type: biochemical
# PARTICULARS: 5′-methylthioadenosine as substrate; read-out: initial inhibition constant (Ki)
# Description: The purification procedure of HpMTAN was described previously^10. Briefly, BL21 (DE3) cells harboring a plasmid encoding HpMTAN with an N-terminal His6-tag were grown to an optical density of 0.7 measured at 595 nm and IPTG was introduced to a final concentration of 0.5 mM. […] Kinetics of HpMTAN were determined using a direct assay involving absorbance decrease at 274 nm continuously as a consequence of formation of free adenine from 5′-methylthioadenosine. […]

SMILES_REPR	Ki [nM]
CCCCSC[C@H]1CN(Cc2c[nH]c3c(N)ncnc23)C[C@@H]1O	0.8

====

# TGT: H. pylori MTAN (Helicobacter pylori)
# Construct: His6 (N); made in house; host or cells: E. coli BL21 (DE3)
# Sequence (Q9ZMY2 1-230): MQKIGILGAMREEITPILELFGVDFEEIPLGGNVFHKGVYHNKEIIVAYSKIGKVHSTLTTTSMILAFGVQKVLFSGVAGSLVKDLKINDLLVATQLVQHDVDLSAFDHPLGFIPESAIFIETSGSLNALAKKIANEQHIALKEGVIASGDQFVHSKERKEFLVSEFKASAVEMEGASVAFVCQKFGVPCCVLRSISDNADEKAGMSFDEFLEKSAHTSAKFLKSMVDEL
# TEST_DESCRIPTION: Ki determination: inhibition of recombinant HpMTAN, xanthine oxidase coupled assay, 5′-methylthioadenosine as substrate
# Type: biochemical
# PARTICULARS: Table 3, DADMe-Immucillin-A series; initial inhibition constant; read-out: Inhibition of H. pylori MTAN Ki
Ki under 300 pM gets Criterion met, anything at or over 300 pM gets Criterion not met.

COMPOUND	TGT	CLASS
Nc1ncnc2c(CN3C[C@H](CCSCCOCCO)[C@@H](O)C3)c[nH]c12	H. pylori MTAN (Helicobacter pylori)	Criterion met
Nc1ncnc2c(CN3C[C@H](CSCc4ccccc4)[C@@H](O)C3)c[nH]c12	H. pylori MTAN (Helicobacter pylori)	Criterion not met
Nc1ncnc2c(CN3C[C@H](CCSCCO)[C@@H](O)C3)c[nH]c12	H. pylori MTAN (Helicobacter pylori)	Criterion met
CCC[C@H]1CN(Cc2c[nH]c3c(N)ncnc23)C[C@@H]1O	H. pylori MTAN (Helicobacter pylori)	Criterion met
Nc1ncnc2c(CN3C[C@H](CSc4cnccn4)[C@@H](O)C3)c[nH]c12	H. pylori MTAN (Helicobacter pylori)	Criterion met
CCCCCCSC[C@H]1CN(Cc2c[nH]c3c(N)ncnc23)C[C@@H]1O	H. pylori MTAN (Helicobacter pylori)	Criterion met
C#CCCCCSC[C@H]1CN(Cc2c[nH]c3c(N)ncnc23)C[C@@H]1O	H. pylori MTAN (Helicobacter pylori)	Criterion not met
Nc1ncnc2c(CN3C[C@H](CSC4CCCCCC4)[C@@H](O)C3)c[nH]c12	H. pylori MTAN (Helicobacter pylori)	Criterion not met
Nc1ncnc2c(CN3CC(O)[C@@H](CSCCCO)C3)c[nH]c12 (stereo partly drawn)	H. pylori MTAN (Helicobacter pylori)	Criterion not met
Nc1ncnc2c(CN3C[C@H](CSc4n[nH]c(-c5ccncc5)n4)[C@@H](O)C3)c[nH]c12	H. pylori MTAN (Helicobacter pylori)	Criterion met
CCCC[C@H]1CN(Cc2c[nH]c3c(N)ncnc23)C[C@@H]1O	H. pylori MTAN (Helicobacter pylori)	Criterion met
Nc1ncnc2c(CN3C[C@H](CSCC4CCCCC4)[C@@H](O)C3)c[nH]c12	H. pylori MTAN (Helicobacter pylori)	Criterion not met
Nc1ncnc2c(CN3C[C@H](CSc4nccs4)[C@@H](O)C3)c[nH]c12	H. pylori MTAN (Helicobacter pylori)	Criterion met
Nc1ncnc2c(CN3C[C@H](CSc4ccccn4)[C@@H](O)C3)c[nH]c12	H. pylori MTAN (Helicobacter pylori)	Criterion not met
Nc1ncnc2c(CN3CC(O)[C@@H](CSCCOCCO)C3)c[nH]c12 (stereo partly drawn)	H. pylori MTAN (Helicobacter pylori)	Criterion not met
Nc1ncnc2c(CN3CC(O)[C@@H](CSCCCCO)C3)c[nH]c12 (stereo partly drawn)	H. pylori MTAN (Helicobacter pylori)	Criterion not met
Nc1ncnc2c(CN3C[C@H](CSC4CCC4)[C@@H](O)C3)c[nH]c12	H. pylori MTAN (Helicobacter pylori)	Criterion met
CCCCCCSCC[C@H]1CN(Cc2c[nH]c3c(N)ncnc23)C[C@@H]1O	H. pylori MTAN (Helicobacter pylori)	Criterion not met

====

Measured log10 of Ki, listed per entry for reference.
# TGT: H. pylori MTAN (Helicobacter pylori)
# Construct: His6 (N); made in house; host or cells: E. coli BL21 (DE3)
# TEST_DESCRIPTION: Ki determination: inhibition of recombinant HpMTAN, xanthine oxidase coupled assay, 5′-methylthioadenosine as substrate
# Format: biochemical
# PARTICULARS: Table 3; equilibrium dissociation constant after slow onset; read-out: Inhibition of H. pylori MTAN Ki*
RECORDED_METRIC: log10 of Ki (log10 of the value in nM)

COMPOUND	log10 of Ki
Nc1ncnc2c(CN3C[C@H](CSc4nccs4)[C@@H](O)C3)c[nH]c12	-1.80
Nc1ncnc2c(CN3CC(O)[C@@H](CSCCO)C3)c[nH]c12 (stereo partly shown)	-1.40
Nc1ncnc2c(CN3C[C@H](CCSCCOCCO)[C@@H](O)C3)c[nH]c12	-1.30
Nc1ncnc2c(CN3C[C@H](CSC4CCCC4)[C@@H](O)C3)c[nH]c12	-0.77
Nc1ncnc2c(CN3CC(O)[C@@H](CSCCCCO)C3)c[nH]c12 (stereo partly shown)	-0.96
Nc1ncnc2c(CN3C[C@H](CCSCCO)[C@@H](O)C3)c[nH]c12	-1.30
Nc1ncnc2c(CN3CC(O)[C@@H](CSCCCO)C3)c[nH]c12 (stereo partly shown)	-1.00
Nc1ncnc2c(CN3C[C@H](CSc4ccccn4)[C@@H](O)C3)c[nH]c12	-1.39
Nc1ncnc2c(CN3C[C@H](CSC4CCC4)[C@@H](O)C3)c[nH]c12	-1.40
Nc1ncnc2c(CN3CC(O)[C@@H](CSCCOCCO)C3)c[nH]c12 (stereo partly shown)	-1.82
Nc1ncnc2c(CN3C[C@H](CSCc4ccccc4)[C@@H](O)C3)c[nH]c12	-0.51
Nc1ncnc2c(CN3C[C@H](CSc4cnccn4)[C@@H](O)C3)c[nH]c12	-2.22
CCSC[C@H]1CN(Cc2c[nH]c3c(N)ncnc23)C[C@@H]1O	-0.28
Nc1ncnc2c(CN3C[C@H](CSCC4CCCCC4)[C@@H](O)C3)c[nH]c12	-1.35
C#CCCCCSC[C@H]1CN(Cc2c[nH]c3c(N)ncnc23)C[C@@H]1O	-1.05
CCCCCCSCC[C@H]1CN(Cc2c[nH]c3c(N)ncnc23)C[C@@H]1O	-0.85
CCCC[C@H]1CN(Cc2c[nH]c3c(N)ncnc23)C[C@@H]1O	-2.15
Nc1ncnc2c(CN3C[C@H](CSC4CCCCCC4)[C@@H](O)C3)c[nH]c12	-1.57
CCCCCCSC[C@H]1CN(Cc2c[nH]c3c(N)ncnc23)C[C@@H]1O	-2.30

====

# TGT: H. pylori MTAN (Helicobacter pylori)
# Construct: His6 (N)
# TEST_DESCRIPTION: Ki determination: inhibition of recombinant HpMTAN, xanthine oxidase coupled assay, 5′-methylthioadenosine as substrate
# PARTICULARS: following slow-onset of inhibition; read-out: equilibrium dissociation constant (Ki*=Kd)
RECORDED_METRIC: Kd

COMPOUND	READING
CCCCSC[C@H]1CN(Cc2c[nH]c3c(N)ncnc23)C[C@@H]1O [Compound 30]	0.036 nM

The values you see were collected from patent US11186575B2.
